Source listed as patent US11371056B2.

Provide the reported Residual turnover [%] of each item.
Tested on: Pseudomonas fluorescens HPPD polypeptide (wild-type and mutants)
measurement-protocol: Coupled HPPD activity assay: turnover and residual turnover in crude HPPD polypeptide extracts with and without Cmpd. 1
Assay type: biochemical
experimental-parameters: 100 μM Cmpd. 1, normalised to turnover without inhibitor
# unit: % | format: bare number

Find the measured Residual turnover [%] of SEQ ID NO:66 (protein, mutant HPPD polypeptide) MADLYENPMGLMGFEFIEFASPTPGTLEPIFEIMGFTKVATHRSKNVHLYRQGEINLILNNEPNSIASYFAAEHGPSVCGMAFRVKDSQKAYNRALELGAQPIHIDTGPMELNLPAIKGIGGAPLYLIDRFGEGSSIYDIDFVYLEGVERNPVGAGLKVIDHLTHNVYRGRMVYWANFYEKLFNFREARYFDIKGEYTGLTSKAMSAPDGMIRIPLNEESSKGAGQIEEFLMQFNGEGIQHVAFLTDDLVKTWDALKKIGMRFLTAPGDEYYEMLEGRLPDHGEPVDQLQARGILLDGSSVEGDKRLLLQIFSEQLMGPVFFEFIQRKGDDGFGPDSFKVLFEQIERDQVRRGVLTAD and report it.
65

Given SEQ ID NO:34 (protein, mutant HPPD polypeptide) MADLYENPMGLMGFEFIEFASPTPGTLEPIFEIMGFTKVATHRSKNVHLYRQGEINLILNNEPNSIASYFAAEHGPSVCGMAFRVKDSQKAYNRALELGAQPIHIDTGPMELNLPAIKGIGGAPLYLIDRFGEGSSIYDIDFVYLEGVERNPVGAGLKVIDHLTHNVYRGRMVYWANFYEKLFNFREARYFDIKGEYTGLTSKAMSAPDGMIRIPLNEESSKGAGQIEEFLMQFNGEGIQHVAFLTDDLVKTWDALKKIGMRFMTAPGDEYYEMLEGRLPDHGEPVDQLQARGILLDGSSVEGDKRLLLQIFSETLMGPVFFEFIQRKGDDGFGPHSFKVLFESMERDQVRRGVLTAD , respond with its Residual turnover [%].
53
